Task for the reader: assign each of the following compounds its reported pIC50.
- measured.target: STING in THP1 cells (HAQ allele) (Homo sapiens, UniProt Q86WV6, G230A/H232R/R293Q/R71H)
- Construct: host or cells: THP-1 dual reporter cells
- Sequence (Q86WV6 whole entry R71H/G230A/H232R/R293Q): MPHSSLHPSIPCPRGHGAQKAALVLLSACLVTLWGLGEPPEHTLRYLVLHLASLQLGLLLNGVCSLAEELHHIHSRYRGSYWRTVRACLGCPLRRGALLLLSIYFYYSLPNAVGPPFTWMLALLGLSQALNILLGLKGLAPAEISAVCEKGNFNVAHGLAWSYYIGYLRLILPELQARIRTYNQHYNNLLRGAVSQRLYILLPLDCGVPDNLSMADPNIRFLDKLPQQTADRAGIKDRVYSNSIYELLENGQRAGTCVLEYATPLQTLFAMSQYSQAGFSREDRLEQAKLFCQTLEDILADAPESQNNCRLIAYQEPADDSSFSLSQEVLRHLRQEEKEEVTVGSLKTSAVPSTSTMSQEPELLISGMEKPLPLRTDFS
- protocol: THP-1 competition assay with STING agonist 2′3′-RR-(A)(A) (IRF-3 luciferase reporter)
- Type: cell-based
One number for each entry, as −log10 of the molar value.

Sample answers from the record:
# compound, property.name, readout.number
data = [
    ("CC(C)(C)[Si](C)(C)O[C@H]1[C@H]2O[P@@](=O)(S)OC[C@H]3O[C@@H](n4cnc5c(N)ncnc54)[C@H](F)[C@@H]3O[P@](=O)(S)OC[C@H]1O[C@H]2n1cnc2c(N)ncnc21 [Compound 6a]", "pIC50", 2.66),
    ("CC(C)(C)[Si](C)(C)O[C@@H]1[C@@H]2OP(=O)(S)OC[C@H]3O[C@@H](n4cnc5c(N)ncnc54)[C@H](OP(=O)(S)OC[C@H]2O[C@H]1n1cnc2c(=O)[nH]c(N)nc21)[C@@H]3O[Si](C)(C)C(C)(C)C (single isomer, unassigned) [compound 49 isomer 2]", "pIC50", 3.38),
    ("CC(C)(C)[Si](C)(C)O[C@@H]1[C@@H]2OP(=O)(S)OC[C@H]3O[C@@H](n4cnc5c(N)ncnc54)[C@H](OP(=O)(S)OC[C@H]2O[C@H]1n1cnc2c(=O)[nH]c(N)nc21)[C@@H]3O[Si](C)(C)C(C)(C)C (single isomer, unassigned) [compound 49 isomer 1]", "pIC50", 3.96),
]

// query Query: pIC50; subject: CC(C)(C)[Si](C)(C)O[C@@H]1[C@@H]2O[P@](=O)(S)OC[C@H]3O[C@@H](n4cnc5c(N)ncnc54)[C@H](F)[C@@H]3O[P@@](=O)(S)OC[C@H]2O[C@H]1n1cnc2c(N)ncnc21 [Compound 18a]
// result 2.68

====

- measured.target: hSTING HAQ allele (Homo sapiens, UniProt Q86WV6, G230A/H232R/R293Q)
- Construct: DNA encoding amino acids 140-379 (amino acid numbering corresponding to Swiss Prot Q86WV6); 6xHIS-SUMO (with TEV site) (N, cleaved yes); made in house; host or cells: Rosetta2 (DE3) E. coli
- Sequence (Q86WV6 140-379 G230A/H232R/R293Q): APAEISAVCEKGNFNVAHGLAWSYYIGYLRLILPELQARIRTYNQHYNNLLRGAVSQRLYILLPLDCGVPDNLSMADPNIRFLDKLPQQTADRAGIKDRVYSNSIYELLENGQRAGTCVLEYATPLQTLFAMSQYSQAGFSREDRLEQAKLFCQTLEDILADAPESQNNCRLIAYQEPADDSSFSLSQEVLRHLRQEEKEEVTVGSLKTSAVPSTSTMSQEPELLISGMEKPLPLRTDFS
- protocol: Differential scanning fluorometry (DSF) Tm shift with purified STING AA140-379
- Type: binding
- conditions.used: DSF, ligand 1 mM, 1 mg/ml STING AA140-379; read-out: hSTING Tm Shift HAQ
- Protocol: DNA encoding amino acids 140-379 (amino acid numbering corresponding to Swiss Prot Q86WV6) was amplified from plasmids containing the full length sequence of human STING alleles via polymerase chain reaction with the following primers: forward […] […] Plasmids encoding 6×HIS-SUMO-TEV-STING amino acids 140-379 were transformed into Rosetta2 (DE3) E. coli cells (EMD Millipore) for protein expression. Cells were grown in lysogeny broth at 37° C. until a […] absorbance of 0.6 was reached. […]
Task for the reader: assign each of the following compounds its reported ΔTm at 1000 µM.
Give bare numbers, in °C.

Sample answers from the record:
# compound, readout.number
measured = [
    ("Nc1nc(N)c2ncn([C@@H]3O[C@@H]4CO[P@@](=O)(S)O[C@H]5[C@@H](O)[C@H](n6cnc7c(N)nc(N)nc76)O[C@@H]5CO[P@](=O)(S)O[C@H]4[C@H]3O)c2n1 [Compound 23a]", 6.3),
    ("Nc1ncnc2c1ncn2[C@H]1O[C@H]2CO[P@@](=O)(S)O[C@@H]3[C@H](O)[C@@H](n4cnc5c(N)ncnc54)O[C@H]3CO[P@@](=O)(S)O[C@@H]2[C@@H]1O [Compound 48b]", 3.5),
]

# batch size: 3; output ΔTm at 1000 µM per entry
1. CC(C)C(=O)Nc1nc2c(ncn2[C@@H]2O[C@@H]3CO[P@](=O)(S)O[C@@H]4[C@H](O)[C@@H](CO[P@@](=O)(S)O[C@H]3[C@H]2O)O[C@H]4n2cnc3c(NC(=O)c4ccccc4)ncnc32)c(=O)[nH]1 [Compound 42a]
2. Nc1nc(N)c2ncn([C@@H]3O[C@@H]4CO[P@@](=O)(S)O[C@H]5[C@@H](O)[C@H](n6cnc7c(N)nc(N)nc76)O[C@@H]5CO[P@@](=O)(S)O[C@H]4[C@H]3O)c2n1
3. Nc1ccn([C@@H]2O[C@@H]3CO[P@](=O)(S)O[C@H]4[C@@H](F)[C@H](n5cnc6c(N)ncnc65)O[C@@H]4CO[P@@](=O)(S)O[C@H]3[C@H]2F)c(=O)n1 [Compound 37a]

// result
[4.2, 15.1, 6.4]

====

- measured.target: hSTING WT (Homo sapiens, UniProt Q86WV6, H232R)
- Construct: DNA encoding amino acids 140-379 (amino acid numbering corresponding to Swiss Prot Q86WV6); 6xHIS-SUMO (with TEV site) (N, cleaved yes); made in house; host or cells: Rosetta2 (DE3) E. coli
- Sequence (Q86WV6 140-379 H232R): as the sequence (Q86WV6 140-379 G230A/H232R/R293Q) above, with A91G, Q154R counted along it
- protocol: Differential scanning fluorometry (DSF) Tm shift with purified STING AA140-379
- Assay type: binding
- conditions.used: ligand 1 mM, 1 mg/ml STING AA140-379
Task for the reader: assign each of the following compounds its reported hSTING Tm Shift WT.
Numbers only, in °C.

Sample answers from the record:
# compound, hSTING Tm Shift WT / °C
measured = [
    ("CC(C)(C)[Si](C)(C)O[C@H]1[C@H]2O[P@@](=O)(S)OC[C@H]3O[C@@H](n4cnc5c(N)ncnc54)[C@H](F)[C@@H]3O[P@](=O)(S)OC[C@H]1O[C@H]2n1cnc2c(N)ncnc21", 9.0),
    ("Nc1ccn([C@@H]2O[C@@H]3CO[P@@](=O)(S)O[C@H]4[C@@H](F)[C@H](n5cnc6c(N)ncnc65)O[C@@H]4CO[P@@](=O)(S)O[C@H]3[C@H]2F)c(=O)n1", 8.2),
]

Next up:
// query Query: hSTING Tm Shift WT; subject: Nc1ncnc2c1ncn2[C@H]1O[C@H]2CO[P@@](=O)(S)O[C@@H]3[C@H](O)[C@@H](n4cnc5c(N)ncnc54)O[C@H]3CO[P@](=O)(S)O[C@@H]2[C@@H]1O [Compound 48a]
// result 2.9

====

Task for the reader: assign each of the following compounds its reported pIC50.
- measured.target: STING in THP1 cells (HAQ allele) (Homo sapiens, UniProt Q86WV6, G230A/H232R/R293Q/R71H)
- Construct: host or cells: THP-1 dual reporter cells
- protocol: THP-1 competition assay with STING agonist 2′3′-RR-(A)(A) (IRF-3 luciferase reporter)
- Assay type: cell-based
- conditions.used: 50 μM 2′3′-RR-(A)(A), scaffold 2,000 μM-3.9 μM, without digitonin, IRF-3 reporter; read-out: IC50 inhibition of 2′3′-RR-(A)(A) agonist activity without digitonin in THP1 cells (HAQ allele)
One number for each entry, as −log10 of the molar value.

Sample answers from the record:
# compound, measured.target, pIC50
measured = [
    ("Nc1ncnc2c1ncn2[C@H]1O[C@H]2CO[P@@](=O)(S)O[C@@H]3[C@H](O)[C@@H](n4cnc5c(N)ncnc54)O[C@H]3CO[P@@](=O)(S)O[C@@H]2[C@@H]1O [Compound 48b]", "STING in THP1 cells (HAQ allele) (Homo sapiens, UniProt Q86WV6, G230A/H232R/R293Q/R71H)", 3.47),
    ("Nc1nc(N)c2ncn([C@@H]3O[C@@H]4CO[P@@](=O)(S)O[C@H]5[C@@H](O)[C@H](n6cnc7c(N)nc(N)nc76)O[C@@H]5CO[P@@](=O)(S)O[C@H]4[C@H]3O)c2n1 [Compound 23]", "STING in THP1 cells (HAQ allele) (Homo sapiens, UniProt Q86WV6, G230A/H232R/R293Q/R71H)", 3.82),
    ("Nc1ccn([C@@H]2O[C@@H]3CO[P@](=O)(S)O[C@H]4[C@@H](F)[C@H](n5cnc6c(N)ncnc65)O[C@@H]4CO[P@@](=O)(S)O[C@H]3[C@H]2F)c(=O)n1 [Compound 37a]", "STING in THP1 cells (HAQ allele) (Homo sapiens, UniProt Q86WV6, G230A/H232R/R293Q/R71H)", 2.50),
]

# batch size: 2; output pIC50 per entry
1. C#CCOc1nc(N)nc2c1ncn2[C@@H]1O[C@@H]2COP(=O)(O)O[C@H]3[C@@H](O)[C@H](n4cnc5c(=O)[nH]c(N)nc54)O[C@@H]3COP(=O)(O)O[C@H]2[C@H]1O [compound 25]
2. Nc1ccn([C@@H]2O[C@@H]3CO[P@@](=O)(S)O[C@H]4[C@@H](F)[C@H](n5cnc6c(N)ncnc65)O[C@@H]4CO[P@@](=O)(S)O[C@H]3[C@H]2F)c(=O)n1 [Compound 37]

// result
[2.30, 2.39]

src = patent US20180369268A1
